# Tgt: OCT3 (Homo sapiens, UniProt O75751)
# Construct: expressed in transfected cells; host or cells: HEK293
# Test: Inhibition of model substrate uptake in OCT3-overexpressing HEK293 cells
# Assay type: cell-based
# Measurement Setup: OCT3, Table S5; 2 μM ASP+ or ethambutol as model substrate, 5 min; read-out: IC50
Metric Name: pIC50
To interpret pIC50, take it as minus log10 of a concentration measured in moles per litre.

Take a look at these entries with their results.
Molecule	Quantitative Result
C=C[C@H]1C[N@@]2CC[C@H]1C[C@H]2[C@H](O)c1ccnc2ccc(OC)cc12 [Quinine]	4.10
CN(C)CCc1c[nH]c2ccc(C[C@H]3COC(=O)N3)cc12 [(S)-Zolmitriptan]	4.76
Cc1ccc(O)c([C@H](CCN(C(C)C)C(C)C)c2ccccc2)c1 [(R)-Tolterodine]	5.64

**Query** State recorded pIC50 with OCT3 (Homo sapiens, UniProt O75751), entry C=C[C@H]1C[N@@]2CC[C@H]1C[C@@H]2[C@@H](O)c1ccnc2ccc(OC)cc12 [Quinidine] , no comment.
**Result** 3.60

**Query** State recorded pIC50 with OCT3 (Homo sapiens, UniProt O75751), entry Cc1ccc(O)c([C@@H](CCN(C(C)C)C(C)C)c2ccccc2)c1 [(S)-Tolterodine] , no comment.
**Result** 4.60

###

# Tgt: OCT3 (Homo sapiens, UniProt O75751)
# Construct: expressed in transfected cells; host or cells: HEK293
# Sequence (O75751 1-556): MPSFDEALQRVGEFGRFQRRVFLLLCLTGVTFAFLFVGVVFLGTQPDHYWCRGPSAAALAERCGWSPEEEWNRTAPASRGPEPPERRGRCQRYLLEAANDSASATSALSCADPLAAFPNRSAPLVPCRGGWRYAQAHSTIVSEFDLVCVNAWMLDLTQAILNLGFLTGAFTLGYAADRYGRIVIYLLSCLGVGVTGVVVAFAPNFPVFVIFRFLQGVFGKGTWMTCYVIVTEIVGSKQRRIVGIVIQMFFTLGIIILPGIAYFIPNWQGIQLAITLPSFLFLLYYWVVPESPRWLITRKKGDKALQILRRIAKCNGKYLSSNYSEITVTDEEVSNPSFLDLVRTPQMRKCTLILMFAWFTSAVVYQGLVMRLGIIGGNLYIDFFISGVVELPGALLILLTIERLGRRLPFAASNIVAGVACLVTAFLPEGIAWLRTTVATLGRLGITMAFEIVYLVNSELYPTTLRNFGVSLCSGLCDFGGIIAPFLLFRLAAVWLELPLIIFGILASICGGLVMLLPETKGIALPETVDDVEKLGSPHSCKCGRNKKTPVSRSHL
# Test: Inhibition of model substrate uptake in OCT3-overexpressing HEK293 cells
# Assay type: cell-based
# Measurement Setup: OCT3; 20 μM inhibitor, 2 μM (S)-zolmitriptan, 5 min
Metric Name: (S)-Zolmitriptan inhibition [%] (%)
Numbers only here, please. The scale is %.

Take a look at these entries with their results.
Molecule	Tgt	(S)-Zolmitriptan inhibition [%] (%)
C#CCN[C@H]1CCc2ccccc21 [(S)-Rasagiline]	OCT3 (Homo sapiens, UniProt O75751)	6.7
CCCNC[C@H](O)COc1ccccc1C(=O)CCc1ccccc1 [(S)-Propafenone]	OCT3 (Homo sapiens, UniProt O75751)	62.0
CCC(CO)NCCNC(CC)CO [(S,S)-Ethambutol]	OCT3 (Homo sapiens, UniProt O75751)	-1.3
CCC(CO)NCCNC(CC)CO [(R,S)-Ethambutol]	OCT3 (Homo sapiens, UniProt O75751)	-8.0

**Query** Please give measured (S)-Zolmitriptan inhibition [%] of the following entry: N[C@H]1CONC1=O [(S)-Cycloserine]
**Result** 6.3

**Query** Please give measured (S)-Zolmitriptan inhibition [%] of the following entry: N[C@@H]1CONC1=O [(R)-Cycloserine]
**Result** -0.4

**Query** Please give measured (S)-Zolmitriptan inhibition [%] of the following entry: CC(C)NC[C@H](O)COc1cccc2ccccc12 [(S)-Propranolol]
**Result** 38.2

**Query** Please give measured (S)-Zolmitriptan inhibition [%] of the following entry: CC(C)(C)NC[C@@H](O)c1ccc(O)c(CO)c1 [(S)-Salbutamol]
**Result** -3.4

**Query** Please give measured (S)-Zolmitriptan inhibition [%] of the following entry: CCC(CO)NCCNC(CC)CO [(R,R)-Ethambutol]
**Result** -3.7

**Query** Please give measured (S)-Zolmitriptan inhibition [%] of the following entry: CN(C)CCO[C@@](C)(c1ccccc1)c1ccccn1 [(S)-Doxylamine]
**Result** 33.8

**Query** Please give measured (S)-Zolmitriptan inhibition [%] of the following entry: OC[C@H](O)CN1CCN(c2ccccc2)CC1 [(R)-Dropropizine]
**Result** -30.2

###

# Tgt: OCT1 (Homo sapiens, UniProt O15245)
# Sequence (O15245 whole entry): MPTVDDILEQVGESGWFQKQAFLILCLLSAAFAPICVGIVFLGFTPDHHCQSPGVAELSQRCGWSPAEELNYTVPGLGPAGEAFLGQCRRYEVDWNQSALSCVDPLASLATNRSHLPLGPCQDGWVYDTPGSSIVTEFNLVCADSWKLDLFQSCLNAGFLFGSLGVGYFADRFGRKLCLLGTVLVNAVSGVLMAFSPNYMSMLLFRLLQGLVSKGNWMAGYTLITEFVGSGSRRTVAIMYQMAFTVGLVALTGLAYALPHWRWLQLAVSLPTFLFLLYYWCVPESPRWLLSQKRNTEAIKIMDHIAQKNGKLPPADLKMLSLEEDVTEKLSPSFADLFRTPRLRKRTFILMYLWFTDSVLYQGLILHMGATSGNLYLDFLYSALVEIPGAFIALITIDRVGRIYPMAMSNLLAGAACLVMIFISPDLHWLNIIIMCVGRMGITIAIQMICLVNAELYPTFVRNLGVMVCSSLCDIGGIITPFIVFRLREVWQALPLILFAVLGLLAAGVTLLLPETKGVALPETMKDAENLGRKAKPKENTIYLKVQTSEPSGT
# Test: Inhibition of model substrate uptake in OCT1-overexpressing HEK293 cells
# Type: cell-based
# Set-up: expressed in transfected cells; host or cells: HEK293
# Measurement Setup: OCT1; 20 μM inhibitor, 2 μM ASP+, 5 min; mean of three experiments
// reported ASP+ inhibition [%] for each item listed
Numbers only here, please. The scale is %.

Take a look at these entries with their results.
Compound	Quantitative Result
OC[C@@H](O)CN1CCN(c2ccccc2)CC1 [(S)-Dropropizine]	24.6
CCN[C@@H](C)Cc1cccc(C(F)(F)F)c1 [(S)-Fenfluramine]	41.9
CN(C)CCO[C@@](C)(c1ccccc1)c1ccccn1 [(S)-Doxylamine]	51.7
CCN[C@H](C)Cc1cccc(C(F)(F)F)c1 [(R)-Fenfluramine]	38.4
CCN1CCC[C@H]1CNC(=O)c1cc(S(=O)(=O)CC)c(N)cc1OC [(S)-Amisulpride]	23.5
N[C@@H]1CONC1=O [(R)-Cycloserine]	-0.8
CC(C)C[C@H](N(C)C)C1(c2ccc(Cl)cc2)CCC1 [(S)-Sibutramine]	38.0
O=C(OC1C[N+]2(CCCOc3ccccc3)CCC1CC2)C(O)(c1cccs1)c1cccs1 [(S)-Aclidinium]	78.8

**Query** Please give measured ASP+ inhibition [%] of the following entry: CC(C)(C)NC[C@@H](O)c1ccc(O)c(CO)c1 [(S)-Salbutamol]
**Result** 6.1

**Query** Please give measured ASP+ inhibition [%] of the following entry: C#CCN[C@@H]1CCc2ccccc21 [(R)-Rasagiline]
**Result** -1.3

**Query** Please give measured ASP+ inhibition [%] of the following entry: N[C@H]1CONC1=O [(S)-Cycloserine]
**Result** -2.6

**Query** Please give measured ASP+ inhibition [%] of the following entry: CNCC[C@H](Oc1ccc(C(F)(F)F)cc1)c1ccccc1 [(S)-Fluoxetine]
**Result** 47.7

**Query** Please give measured ASP+ inhibition [%] of the following entry: NC[C@H](O)c1ccc(O)c(O)c1 [(R)-Norepinephrine]
**Result** -4.8

**Query** Please give measured ASP+ inhibition [%] of the following entry: C#CCN[C@H]1CCc2ccccc21 [(S)-Rasagiline]
**Result** 6.9

**Query** Please give measured ASP+ inhibition [%] of the following entry: NC[C@@H](O)c1ccc(O)c(O)c1 [(S)-Norepinephrine]
**Result** -3.3

**Query** Please give measured ASP+ inhibition [%] of the following entry: CC(C)C[C@@H](N(C)C)C1(c2ccc(Cl)cc2)CCC1 [(R)-Sibutramine]
**Result** 41.5

**Query** Please give measured ASP+ inhibition [%] of the following entry: CCC(CO)NCCNC(CC)CO [(R,S)-Ethambutol]
**Result** 4.0

###

# Tgt: OCT2 (Homo sapiens, UniProt O15244)
# Sequence (O15244 whole entry): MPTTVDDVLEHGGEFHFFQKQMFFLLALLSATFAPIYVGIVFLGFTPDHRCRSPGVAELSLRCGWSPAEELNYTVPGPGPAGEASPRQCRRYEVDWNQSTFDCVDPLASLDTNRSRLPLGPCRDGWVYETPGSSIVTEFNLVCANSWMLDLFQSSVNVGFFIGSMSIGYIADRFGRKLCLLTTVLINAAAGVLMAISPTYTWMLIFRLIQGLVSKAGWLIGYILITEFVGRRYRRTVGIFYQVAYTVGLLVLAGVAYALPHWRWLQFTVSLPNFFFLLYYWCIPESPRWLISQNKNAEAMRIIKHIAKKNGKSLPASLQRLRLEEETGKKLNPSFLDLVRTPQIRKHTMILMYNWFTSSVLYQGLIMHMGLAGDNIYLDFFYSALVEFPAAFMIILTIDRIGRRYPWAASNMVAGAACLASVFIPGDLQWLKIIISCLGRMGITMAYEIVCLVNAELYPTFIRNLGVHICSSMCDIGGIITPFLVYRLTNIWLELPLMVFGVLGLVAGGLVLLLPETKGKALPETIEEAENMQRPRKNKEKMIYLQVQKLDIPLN
# Test: Inhibition of model substrate uptake in OCT2-overexpressing HEK293 cells
# Measurement Setup: IC50, OCT2, Table S5; 2 μM ASP+ as model substrate, 5 min
// reported pIC50 for each item listed
To interpret pIC50, take it as minus log10 of a concentration measured in moles per litre.

Molecule	Metric Name	Quantitative Result
Cc1ccc(O)c([C@H](CCN(C(C)C)C(C)C)c2ccccc2)c1 [(R)-Tolterodine]	pIC50	6.70
CCN(CC)CC#CCOC(=O)[C@](O)(c1ccccc1)C1CCCCC1 [(R)-Oxybutynine]	pIC50	4.50
C#CCN(C)[C@@H](C)Cc1ccccc1 [(S)-Deprenyl]	pIC50	5.47

**Query** Please give measured pIC50 of the following entry: CCCN[C@H]1CCc2nc(N)sc2C1 [(S)-Pramipexole]
**Result** 4.08

###

# Tgt: OCT3 (Homo sapiens)
# Construct: expressed in transfected cells; host or cells: HEK293
# Test: Inhibition of model substrate uptake in OCT3-overexpressing HEK293 cells
# Format: cell-based
# Measurement Setup: HEK293, 5 min, read-out: (S,S)-Ethambutol inhibition [%]
Metric Name: inhibition at 20 µM (%)
Numbers only here, please. The scale is %.

Take a look at these entries with their results.
Molecule	Tgt	inhibition at 20 µM (%)
COc1ccc([C@@H](CN(C)C)C2(O)CCCCC2)cc1 [(S)-Venlafaxine]	OCT3 (Homo sapiens)	4.6
COc1ccc([C@H](CN(C)C)C2(O)CCCCC2)cc1 [(R)-Venlafaxine]	OCT3 (Homo sapiens)	12.3
CNCC[C@@H](Oc1ccc(C(F)(F)F)cc1)c1ccccc1 [(R)-Fluoxetine]	OCT3 (Homo sapiens)	9.6
CNCC[C@@H](Oc1cccc2ccccc12)c1cccs1 [(R)-Duloxetine]	OCT3 (Homo sapiens)	16.7
CCN[C@H](C)Cc1cccc(C(F)(F)F)c1 [(R)-Fenfluramine]	OCT3 (Homo sapiens)	40.7
COc1ccc(CCN(C)CCC[C@@](C#N)(c2ccc(OC)c(OC)c2)C(C)C)cc1OC [(S)-Verapamil]	OCT3 (Homo sapiens)	70.7

**Query** State recorded inhibition at 20 µM with OCT3 (Homo sapiens), entry COc1ccc(CCN(C)CCC[C@](C#N)(c2ccc(OC)c(OC)c2)C(C)C)cc1OC [(R)-Verapamil] , no comment.
**Result** 48.9

**Query** State recorded inhibition at 20 µM with OCT3 (Homo sapiens), entry C#CCN(C)[C@H](C)Cc1ccccc1 [(R)-Deprenyl] , no comment.
**Result** 24.2

**Query** State recorded inhibition at 20 µM with OCT3 (Homo sapiens), entry CNCC[C@H](Oc1cccc2ccccc12)c1cccs1 [(S)-Duloxetine] , no comment.
**Result** 25.2

**Query** State recorded inhibition at 20 µM with OCT3 (Homo sapiens), entry CC(C)C[C@@H](N(C)C)C1(c2ccc(Cl)cc2)CCC1 [(R)-Sibutramine] , no comment.
**Result** 35.5
